This collection of values is drawn from the MegaScale stability set (Tsuboyama et al. 2023).

B1: EEHEE_rd4_0763 (parent)
chain: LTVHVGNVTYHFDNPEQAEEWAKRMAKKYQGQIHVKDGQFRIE

Variants of: B1
Experiment: folding stability dG (cDNA display proteolysis); higher = more stable
Settings: PBS, room temperature
Here, each record is paired with measured folding stability dG data.
Provide only the numeric value, understood in kcal/mol.

>  <sequenceCode>
LTVHVGNVTYHFDNPEQAEEWAKRMAKKYQGQIHVKDGFFRIE

>  <resultValue>
1.17

$$$$
>  <sequenceCode>
LTVHVGNVTYHFVNPEQAEEWAKRMAKKYQGQIHVKDGQFRIE

>  <resultValue>
1.46

$$$$
>  <sequenceCode>
LTVHVGNVTYHFDNPEQAEEWAKRMAKKYQGQIHNKDGQFRIE

>  <resultValue>
1.18

$$$$
>  <sequenceCode>
LTVHVGNVTYHFDGPEQAEEWAKRMAKKYQGQIHVKDGQFRIE

>  <resultValue>
1.03

$$$$
>  <sequenceCode>
LTVHVGNVTYHFDNPEQAEEWAKRMAKKYEGQIHVKDGQFRIE

>  <resultValue>
1.33

$$$$

For the next question, use this variant.
Exercise: Need folding stability dG, item LTVMVGNVTYHFDNPEQAEEWAKRMAKKYQGQIHVKDGQFRIE
Key: 1.8
